Where do the numbers come from? From PubChem BioAssay.

protocol_notes: osmotic lysis modulators in infected erythrocytes, primary screen, PSAC antagonist project, cell-based, P. falciparum Indochina, OD700, 3 h (AID 1156)
recorded_conditions: higher = more signal, called active from +8 up or from −8 down
Is z-score at least 0.1? Then rule met. If not, rule not met.

Would you please look over these solved cases?
INSERT INTO assay_data (compound, label_class) VALUES
  ('CC(CCN1CCc2nc(-c3ccccc3)c(-c3ccccc3)cc2C1)=NO[C@@H](C)c1cn([C@H](CO)Cc2ccccc2)nn1', 'rule not met'),
  ('Cc1ccc(S[C@]2(C(=O)O)CC(=O)N(Cc3ccccc3)[C@@H]2c2ccc(CO)cc2I)cc1', 'rule met'),
  ('O=C1O[C@@H](c2ccccc2)[C@@H](c2ccccc2)N2[C@@H](c3ccc(OCCO)cc3)[C@]3(C(=O)Nc4ccc(C#CCCO)cc43)[C@@H](C(=O)N3CCCCCCC3)[C@H]12', 'rule met'),
  ('O[C@@H](Cc1ccccc1)[C@H]1C2C=CCCC(c3ccccc3)=C2CN1Cc1cccc(Cl)c1 (some centres not stated)', 'rule met'),
  ('O=C1O[C@@H](c2ccccc2)[C@@H](c2ccccc2)N2[C@@H](c3ccc(OCCO)cc3)[C@]3(C(=O)Nc4ccccc43)[C@@H](C(=O)N3CCN(c4ncccn4)CC3)[C@H]12', 'rule met');

Request: Hello, I need to know if `O=C(CS)NCCCCCNC(=O)[C@H]1C[C@H]2C(=O)N3CCC[C@H]3C(=O)N2[C@H]1c1cccc(OCCO)c1` has measured z-score not below 0.1. Thanks!
Result: rule not met

Request: Could you do the same for `O=C1[C@H]2[C@H]3[C@H](O)[C@H](O)CC(=NOC[C@@H](O)COCc4ccco4)[C@H]3CC[C@H]2C(=O)N1Cc1ccc2c(c1)OCO2` , please?
Result: rule met

====

z-score reference
protocol_notes: E. coli acrAB mutant growth effects, primary screen, E. coli filamentation inducers, strain DRC39, OD650, 48 h (AID 1179);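 note: screen aims at cell division blockers that make cells filament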
recorded_conditions: E. coli DRC39 delta-acrAB growth, higher = more signal, called active from +8 up or from −8 down
Number only, please.

Here's what some known entries look like.
INSERT INTO assay_data (entry_smiles, recorded_value) VALUES
  ('COCC1=C2[C@@H](CCc3ccccc3)OB(O)C[C@@H]2n2c(=O)n(-c3ccccc3)c(=O)n2C1', 0.545),
  ('Cc1ccc(S(=O)(=O)N[C@@H]2COC(=O)[C@H](C)COC(=O)CC=C[C@H]2C)cc1', -1.2),
  ('C=CCOC(=O)[C@H]1[C@@H]2C(=O)O[C@@H](c3ccccc3)[C@@H](c3ccccc3)N2[C@@H](c2ccc(OCCOC(=O)[C@H]3C[C@H]4C(=O)N5CCC[C@H]5C(=O)N4[C@H]3c3cccc(OCCO)c3)cc2)[C@]12C(=O)Nc1ccc(I)cc12', -0.553);

Now consider the entry below.
Request: Field request: z-score | item: `CC[C@@H](c1ccccc1)n1c(=O)n2n(c1=O)[C@H]1[C@H](O)[C@@H]3O[C@@H]3C(=NOCC(C)C)[C@H]1CC2`
Result: -1.31

====

composite z-score reference
Tested on: Human papillomavirus type 1a E7 protein (residues 1-88)
protocol_notes: HPV1a E7 small-molecule binders, primary screen, biochemical, small-molecule microarray, residues 1-88, 635 nm (AID 1129)
recorded_conditions: small-molecule microarray binding, fluorescence 635 nm; higher = more signal
Number only, please.

INSERT INTO measurements (compound, property, recorded_value) VALUES
  ('COc1ccc(COC(=O)NN=C2C[C@@H](O)[C@@H](O)[C@@H]3[C@@H]4C(=O)N(Cc5ccc6c(c5)OCO6)C(=O)[C@@H]4CC[C@@H]23)cc1', 'composite z-score', -0.568);

Request: Field request: composite z-score | item: O=C1CCCC2OC12C(O)CCc1ccccc1 (centres undefined)
Result: -0.0206

Request: Could you do the same for `CC(=O)C[C@H](O)[C@@H](NC(=O)OC(C)(C)C)C(C)C` , please?
Result: -1.54

Request: Could you do the same for `C=CC[C@@H]1C=C[C@H](ON=Cc2ccc(C(=O)N3[C@H](c4ccc(C)cc4)[C@@H](C)CC[C@H]3C(=O)OC)cc2)[C@@H](CO)O1` , please?
Result: 0.973
